Origin of measurements: ChEMBL document CHEMBL1141396

Measured IC50 of individual entries
- TESTED SYSTEM: Mitogen-activated protein kinase kinase kinase 9 (Homo sapiens)
- Sequence (P80192 whole entry): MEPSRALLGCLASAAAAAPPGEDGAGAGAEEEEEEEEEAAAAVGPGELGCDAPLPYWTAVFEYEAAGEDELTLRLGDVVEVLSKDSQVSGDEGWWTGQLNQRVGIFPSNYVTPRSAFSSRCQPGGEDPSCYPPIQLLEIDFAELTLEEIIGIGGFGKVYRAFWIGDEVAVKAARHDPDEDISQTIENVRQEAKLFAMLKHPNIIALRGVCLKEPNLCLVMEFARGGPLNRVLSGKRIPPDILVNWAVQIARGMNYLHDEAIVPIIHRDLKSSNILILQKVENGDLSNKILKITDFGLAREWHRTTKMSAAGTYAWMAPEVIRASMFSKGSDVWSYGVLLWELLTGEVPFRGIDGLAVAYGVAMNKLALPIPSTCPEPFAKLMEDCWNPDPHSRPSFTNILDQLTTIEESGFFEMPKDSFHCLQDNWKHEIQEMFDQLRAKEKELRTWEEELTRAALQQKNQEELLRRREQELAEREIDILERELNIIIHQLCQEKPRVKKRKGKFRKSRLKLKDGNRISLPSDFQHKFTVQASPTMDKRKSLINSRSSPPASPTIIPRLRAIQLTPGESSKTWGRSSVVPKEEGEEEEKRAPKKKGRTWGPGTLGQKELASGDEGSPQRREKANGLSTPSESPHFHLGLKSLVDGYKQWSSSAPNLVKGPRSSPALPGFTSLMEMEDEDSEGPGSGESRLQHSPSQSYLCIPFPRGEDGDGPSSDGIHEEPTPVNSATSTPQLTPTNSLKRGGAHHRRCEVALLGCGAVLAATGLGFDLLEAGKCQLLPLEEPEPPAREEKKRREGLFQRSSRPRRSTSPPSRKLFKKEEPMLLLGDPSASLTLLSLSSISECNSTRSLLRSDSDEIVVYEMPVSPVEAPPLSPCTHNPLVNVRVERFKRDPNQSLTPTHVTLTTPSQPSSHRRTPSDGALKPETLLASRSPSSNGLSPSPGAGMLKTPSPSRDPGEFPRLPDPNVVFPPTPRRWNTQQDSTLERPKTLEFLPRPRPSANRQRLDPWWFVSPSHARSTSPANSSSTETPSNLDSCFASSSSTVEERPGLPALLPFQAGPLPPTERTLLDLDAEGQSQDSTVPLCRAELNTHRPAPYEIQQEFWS
- RUN DESCRIPTION: Inhibition of GST-MLK1 expressed in baculovirus
Write it as a number; the unit nM goes unstated.

The following compounds have reported results that may help.
SMILES: O=C1NCc2c1c1c(c3[nH]c4ccccc4c23)Cc2ccccc2-1
METRIC: IC50
ASSAY VALUE: 69
--
SMILES: O=C1NC(=O)c2c1c1c(c3[nH]c4ccccc4c23)CCc2ccccc2-1
METRIC: IC50
ASSAY VALUE: 22
--
SMILES: O=C1NCc2c1c1c3ccccc3[nH]c1c1oc3ccccc3c21
METRIC: IC50
ASSAY VALUE: 308
--
SMILES: O=C1NCc2c1c1c3ccccc3[nH]c1c1sc3ccccc3c21
METRIC: IC50
ASSAY VALUE: 1800
--
SMILES: O=C1NC(=O)c2c1c1c3ccccc3[nH]c1c1sc3ccccc3c21
METRIC: IC50
ASSAY VALUE: 68
--
SMILES: O=C1NCc2c1c1c(c3sc4ccccc4c23)Cc2ccccc2-1
METRIC: IC50
ASSAY VALUE: 482

Query block: API: value(readout= IC50, system= Mitogen-activated protein kinase kinase kinase 9 (Homo sapiens), query= O=C1NCc2c1c1c3ccccc3[nH]c1c1[nH]c3ccccc3c21 )
Result block: 138
